EC50 (read off the curve) values, listed per item
# target: T1, cynomolgus ROR1 on CHO-K1-cynoROR1 cells (cynomolgus monkey, UniProt A0A2K5WTX7 30-937)
# T1 construct: whole, on cells
# assaySummary: flow cytometry on CHOK1-cynoROR1 cells, MFI (APC-A Median) [top panel]

binder="PR005339 (antibody, human IgG1, V domains shown, HCAb (heavy chain-only, human IgG1 Fc), no light chain) VH: EVQLVESGGGLVKPGGSLKLSCAASGFTFSDYYMSWIRQAPGKGVEWISYISNNGSTIHYADSVKGRFTISRDNAKNSLYLQMNSLRAEDTAVYYCARDFNNGWYEDFDYWGQGTLVTVSS" measuredresult="~4 nM"

Turning now to a further binder:
// sample PR005337 (antibody, human IgG1, V domains shown, HCAb (heavy chain-only, human IgG1 Fc), no light chain) VH: EVQLVESGGGLVKPGGSLRLSCAASGFIFSDYYMSWIRQAPGKGLEWVSYISSSGSTIHYADSVKGRFTVSRDNAKNSLYLQMNSLRTEDTAVYYCARDPPTSNSDWVSLHFDHWGQGTLVTVSS , its EC50 (read off the curve) was ~20 nM
